The measured values listed here are drawn from PubChem BioAssay (NCI).

- Tested on: HL-60(TB) leukemia
- assay.remarks: NCI tumour cell line growth inhibition, 48 h
The following molecules are listed with their measured TGI values.

CN(C)/[N+]([O-])=N/Oc1cc(Nc2cccc(C(=O)O)c2)c([N+](=O)[O-])cc1[N+](=O)[O-] :: > 100 µM

In the following, a different molecule is considered.
Q: Query TGI on HL-60(TB) leukemia for Oc1cccc2c1NC1=C(CCC/C1=C\c1ccccc1)C2
Result: > 100 µM

====

- System: SF-539 CNS
- assay.remarks: NCI tumour cell line growth inhibition, 48 h
measured.property: TGI

CC(O)C1OC(O)C2OC(C)(C)OC12 (stereo unspecified) :: > 100 µM
CCOC(=O)C1(C(=O)OCC)C[C@]23OCCC(=O)[C@H]2[C@H]2C(=O)OC(C)(C)O[C@]23C1 :: > 100 µM
CC(=O)/C(C=Nc1c(C)n(C)n(-c2ccccc2)c1=O)=C(/C)O :: > 100 µM
C=C1C(=O)O[C@@H]2C[C@@H]1CC[C@]1(C)O[C@H]1CC[C@@]1(C)O[C@@H]1CC[C@@]2(C)O :: > 100 µM

Q: Query TGI on SF-539 CNS for Cn1c(=O)oc2cc(C(=O)CSC(=S)N3CCCCCC3)ccc21
Result: > 100 µM

Q: How about CC/C(=N\NC(=O)c1cccnc1)c1ccc2c(c1)OCCO2 ?
Result: > 100 µM

Q: How about COc1ccc(CN2C(=O)/C(=C\c3cc(OC)c(OC)c(OC)c3)c3cc(OC)ccc32)cc1 ?
Result: 3.76 µM

Q: How about CC(C)C[C@H](NC(=O)[C@H](Cc1ccccc1)n1ccc(N2CCCCC2)cc1=O)B(O)O ?
Result: 0.604 µM

Q: How about CCOC(=O)c1c(C)n(Cc2ccccc2)c(=O)c2ccccc2c(=O)c2c(=O)ccc(=O)c1=2 ?
Result: > 100 µM

Q: How about O=C1c2ccccc2-c2c1c1ccccc1c(=O)n2CCCNCCCn1c2c(c3ccccc3c1=O)C(=O)c1ccccc1-2 ?
Result: 13 µM
